Provenance of the data: patent US20250313535A1

In this section we review reported pIC50 values for a set of compounds.
# Target Desc: α4β7 integrin (Homo sapiens (Human), UniProt P13612+P26010)
# Sequence (P26010 20-798, one chain of several): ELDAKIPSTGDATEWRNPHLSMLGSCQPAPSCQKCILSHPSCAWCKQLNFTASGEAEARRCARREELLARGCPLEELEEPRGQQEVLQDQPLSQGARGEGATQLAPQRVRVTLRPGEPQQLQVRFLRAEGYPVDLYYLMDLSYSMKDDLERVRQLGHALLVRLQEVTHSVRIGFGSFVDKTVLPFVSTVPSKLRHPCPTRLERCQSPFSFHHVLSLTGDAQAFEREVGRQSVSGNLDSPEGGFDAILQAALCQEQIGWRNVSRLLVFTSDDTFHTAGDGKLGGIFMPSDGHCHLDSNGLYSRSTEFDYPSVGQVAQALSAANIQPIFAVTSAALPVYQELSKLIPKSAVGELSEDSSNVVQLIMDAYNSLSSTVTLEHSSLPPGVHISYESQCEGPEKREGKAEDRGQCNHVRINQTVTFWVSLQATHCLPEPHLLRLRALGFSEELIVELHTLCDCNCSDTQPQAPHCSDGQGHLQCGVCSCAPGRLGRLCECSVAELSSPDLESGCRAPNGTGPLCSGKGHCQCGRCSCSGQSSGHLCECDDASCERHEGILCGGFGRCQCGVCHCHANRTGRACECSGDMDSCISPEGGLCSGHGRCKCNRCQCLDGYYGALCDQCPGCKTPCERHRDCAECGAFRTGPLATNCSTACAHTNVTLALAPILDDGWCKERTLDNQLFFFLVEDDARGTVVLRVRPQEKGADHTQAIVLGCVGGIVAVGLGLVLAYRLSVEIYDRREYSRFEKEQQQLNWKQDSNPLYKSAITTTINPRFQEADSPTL
# Method: Integrin Adhesion Assay: Protocol 1 (MAdCAM-coated plate, RPMI-8866 cells, CellTiter GLO readout)
# Type: cell-based
# Recorded Conditions: integrin adhesion assay; determined by at least one of the assays described (protocol not specified)
pIC50: −log10 of the molar value.

See these solved cases before continuing.
| Input Smiles | pIC50 |
| --- | --- |
| Cn1ccc(=O)n(-c2cccc3c(C[C@H](NC(=O)c4ccc(C(=O)N5CCc6ccccc6C5)nc4)C(=O)O)cccc23)c1=O | < 6.00 |
| Cn1ccc(C(F)(F)F)c(-c2nccc3c(C[C@H](NC(=O)c4cc(F)cc(CSc5ccccc5)c4)C(=O)O)cccc23)c1=O | < 6.00 |

Consider the additional compound presented here.
Problem: Consider the compound `Cn1ccc(=O)n(-c2cccc3c(C[C@H](NC(=O)c4c(F)ccc(NS(=O)(=O)C5CC5)c4F)C(=O)O)cccc23)c1=O` and give its measured pIC50.
Solution: > 8.00

---

# Target Desc: α4β1 integrin (Homo sapiens (Human), UniProt P05556+P13612)
# Sequence (P13612 34-1032): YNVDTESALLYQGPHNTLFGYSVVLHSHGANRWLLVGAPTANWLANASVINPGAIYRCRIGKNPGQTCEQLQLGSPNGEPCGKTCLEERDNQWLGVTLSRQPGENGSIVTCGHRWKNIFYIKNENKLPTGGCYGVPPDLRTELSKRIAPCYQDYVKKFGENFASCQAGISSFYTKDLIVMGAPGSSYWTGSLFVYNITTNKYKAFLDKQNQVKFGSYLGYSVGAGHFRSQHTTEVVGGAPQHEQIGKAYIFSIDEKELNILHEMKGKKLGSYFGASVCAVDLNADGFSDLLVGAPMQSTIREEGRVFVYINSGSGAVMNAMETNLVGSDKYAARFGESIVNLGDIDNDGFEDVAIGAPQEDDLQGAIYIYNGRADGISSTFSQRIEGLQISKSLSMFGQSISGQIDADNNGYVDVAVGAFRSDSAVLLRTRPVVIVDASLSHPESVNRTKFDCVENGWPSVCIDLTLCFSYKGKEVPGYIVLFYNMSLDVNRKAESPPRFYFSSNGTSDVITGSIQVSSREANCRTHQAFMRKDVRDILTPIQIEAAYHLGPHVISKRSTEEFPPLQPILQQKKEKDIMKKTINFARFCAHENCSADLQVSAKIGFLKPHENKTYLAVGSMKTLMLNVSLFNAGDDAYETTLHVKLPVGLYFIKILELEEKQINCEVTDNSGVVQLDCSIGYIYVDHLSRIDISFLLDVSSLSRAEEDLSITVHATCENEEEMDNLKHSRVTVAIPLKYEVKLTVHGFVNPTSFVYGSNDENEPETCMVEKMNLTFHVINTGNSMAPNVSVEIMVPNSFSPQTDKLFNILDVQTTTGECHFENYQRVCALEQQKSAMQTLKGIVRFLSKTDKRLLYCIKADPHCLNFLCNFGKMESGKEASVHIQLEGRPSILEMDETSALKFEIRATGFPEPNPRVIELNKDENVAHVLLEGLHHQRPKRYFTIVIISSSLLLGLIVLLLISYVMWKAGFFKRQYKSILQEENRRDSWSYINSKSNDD
# Sequence (P05556 21-798): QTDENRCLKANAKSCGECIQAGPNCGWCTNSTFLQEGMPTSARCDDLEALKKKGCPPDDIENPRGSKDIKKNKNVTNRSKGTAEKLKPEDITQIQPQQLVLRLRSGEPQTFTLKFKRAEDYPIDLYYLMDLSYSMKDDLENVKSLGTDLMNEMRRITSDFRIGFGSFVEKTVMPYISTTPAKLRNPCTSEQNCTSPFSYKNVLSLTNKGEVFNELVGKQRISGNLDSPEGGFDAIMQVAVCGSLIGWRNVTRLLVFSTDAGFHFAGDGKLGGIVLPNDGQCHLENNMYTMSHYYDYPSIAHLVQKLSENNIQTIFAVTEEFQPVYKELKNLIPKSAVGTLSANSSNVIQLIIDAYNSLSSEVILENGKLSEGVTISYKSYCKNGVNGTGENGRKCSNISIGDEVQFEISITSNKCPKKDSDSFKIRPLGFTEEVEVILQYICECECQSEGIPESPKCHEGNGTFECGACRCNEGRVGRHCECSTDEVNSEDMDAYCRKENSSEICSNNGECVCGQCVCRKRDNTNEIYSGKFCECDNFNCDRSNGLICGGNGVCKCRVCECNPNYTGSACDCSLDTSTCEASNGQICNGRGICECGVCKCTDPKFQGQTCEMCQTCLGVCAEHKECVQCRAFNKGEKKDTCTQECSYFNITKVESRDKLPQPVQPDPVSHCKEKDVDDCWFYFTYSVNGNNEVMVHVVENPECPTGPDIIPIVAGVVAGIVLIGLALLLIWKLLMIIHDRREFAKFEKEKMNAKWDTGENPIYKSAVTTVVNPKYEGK
# Method: Integrin Adhesion Assay: Protocol 5 (VCAM-coated plate, RPMI-8866 cells with stable LOF mutation of the ITGB7 gene)
# Type: cell-based
# Recorded Conditions: RPMI-8866 cells with stable LOF mutation of the ITGB7 gene; read-out: Mean IC50 α4β1 KO^b
# Excerpt: Integrin Adhesion Assay Using Genetically Modified Cells Generating Stable Cell Lines with ITGB1 or ITGB7 Knockout (Protocol 4 and Protocol 5) […] To generate an individual clones of cells deficient in either ITGB7 or ITGB1 by limiting dilution assay, the transfected cells were resuspended at 5 cells/mL and seeded in 384 well plates. Outgrowth of clones was monitored using a microscope, and 24 clones were transferred for expansion. […]
pIC50: −log10 of the molar value.
Metric Name: pIC50

See these solved cases before continuing.
| Molecule | Metric Name | Endpoint Result |
| --- | --- | --- |
| O=C(O)[C@H](Cc1cccc2c(-c3nccc4c(CN5CCCCC5)cccc34)cccc12)NC(=O)C1(C(F)(F)F)CCN([C@@H]2COCC2(F)F)CC1 [Compound 642] | pIC50 | < 6.00 |
| COc1ccc(CN(C)C)c(C)c1-c1cccc2c(C[C@H](NC(=O)c3c(C)cccc3F)C(=O)O)cccc12 [Compound 558] | pIC50 | 6.00 to 7.00 |
| COc1ccc(CN2CCC(F)CC2)c(OC)c1-c1cccc2c(C[C@H](NC(=O)c3c(C)cccc3F)C(=O)O)cccc12 [Compound 624] | pIC50 | 6.00 to 7.00 |
| CN(C)Cc1ccc2c(-c3cccc4c(C[C@H](NC(=O)[C@]5(C)CC[C@H](N6CCOC[C@@H]6C(F)(F)F)CC5)C(=O)O)cccc34)nccc2c1 [Compound 582] | pIC50 | < 6.00 |

Problem: Consider the molecule Cn1c(=O)c(-c2cccc3c(C[C@H](NC(=O)C4(C(F)(F)F)CCN(CC#N)CC4)C(=O)O)cccc23)c(C(F)(F)F)c2ccccc21 [Compound 538] and give its measured pIC50.
Solution: < 6.00

Problem: Consider the molecule CC1(C(=O)N[C@@H](Cc2cccc3c(-c4ncc(CN5CCCCC5)c5ccccc45)cccc23)C(=O)O)CCN(CC(F)(F)F)CC1 [Compound 576] and give its measured pIC50.
Solution: < 6.00

Problem: Consider the molecule Cn1c(=O)c(-c2cccc3c(C[C@H](NC(=O)C4(C(F)(F)F)CCN([C@@H]5CCC(F)(F)C5)CC4)C(=O)O)cccc23)c(C(F)(F)F)c2ccccc21 [Compound 494] and give its measured pIC50.
Solution: 6.00 to 7.00
